# Test system: hyperglycemic male KK mice
# Method notes: Action in depressing blood glucose (Method 1)
# Format: in vivo
# Experimental context: Mus musculus, po, 72 h, compound admixed with powder feed at 0.01% (ca. 10 mg/kg/day) for three days, plasma glucose vs control group, read-out: Rate of hypoglycemic activity (%) (blood glucose depression rate)

| Compound | inhibition in vivo at 10 mg/kg/day |
| --- | --- |
| CCCCC(Cc1ccc(OCCNC(=O)c2ccc(-c3ccccc3OC)cc2)cc1)C(=O)O (centres unmarked) | 20% |
| O=C(NCCOc1ccc(CC(Oc2cccc(F)c2)C(=O)O)cc1)c1ccc(-c2ccccn2)cc1 (centres unmarked) | 49% |
| CCCCC(Cc1ccc(OCCNC(=O)c2ccc(-c3ccc(C(=O)O)cc3)cc2)cc1)C(=O)O (centres unmarked) | 18% |
| CCCCC(Cc1ccc(OCCNC(=O)c2ccc(-c3cccc(OC)c3)cc2)cc1)C(=O)O (centres unmarked) | 21% |
| O=C(NCCOc1ccc(CC(Oc2cc(F)c(F)c(F)c2)C(=O)O)cc1)c1ccc(-c2ccccn2)cc1 (centres unmarked) | 43% |
| O=C(NCCOc1ccc(CC(CCCc2ccccc2)C(=O)O)cc1)c1ccc(-c2ccccn2)cc1 (centres unmarked) | 15% |
| CC(Cc1ccc(OCCNC(=O)c2ccc(-c3ccccn3)cc2)cc1)(Oc1ccccc1)C(=O)O (centres unmarked) | 64% |
| CC(C)c1ccc(OC(Cc2ccc(OCCNC(=O)c3ccc(-c4ccccn4)cc3)cc2)C(=O)O)cc1 (centres unmarked) | 64% |
| O=C(NCCOc1ccc(CC(Oc2ccc(OC(F)(F)F)cc2)C(=O)O)cc1)c1ccc(-c2ccccn2)cc1 (centres unmarked) | 56% |
| CCCCC(Cc1ccc(OCCNC(=O)c2ccc(-c3cc(C)c(O)c(C)c3)cc2)cc1)C(=O)O (centres unmarked) | 37% |
| CCCCC(Cc1ccc(OCCNC(=O)c2ccc(-c3ccc(CN(C)C)cc3)cc2)cc1)C(=O)O (centres unmarked) | 20% |
| COc1ccc(-c2ccc(C(=O)NCCOc3ccc(CC(Oc4ccc(C(C)C)cc4)C(=O)O)cc3)cc2)nc1 (centres unmarked) | 70% |
| CC(C)c1ccc(OC(Cc2ccc(OCCNC(=O)c3ccc(-c4ccc(F)cc4)nc3)cc2)C(=O)O)cc1 (centres unmarked) | 51% |
| CC(C)c1ccc(OC(Cc2ccc(OCCNC(=O)c3ccc(-c4ccc(C(F)(F)F)cn4)cc3)cc2)C(=O)O)cc1 (centres unmarked) | 38% |
| O=C(NCCOc1ccc(CC(Oc2ccccc2)C(=O)O)cc1)c1ccc(-c2ccc(F)cc2)cc1 (centres unmarked) | 53% |
| O=C(NCCOc1ccc(CC(Oc2ccc(C(F)(F)F)cc2)C(=O)O)cc1)c1ccc(-c2ccccn2)cc1 (centres unmarked) | 43% |
| COc1ccc(-c2ccc(C(=O)NCCOc3ccc(CC(Oc4ccc(C(C)C)cc4)C(=O)O)cc3)cn2)cc1 (centres unmarked) | 57% |
| CC(C)c1ccc(OC(Cc2ccc(OCCNC(=O)c3ccc(-c4ccccc4)nc3)cc2)C(=O)O)cc1 (centres unmarked) | 66% |
| CC(C)c1ccc(O[C@@H](Cc2ccc(OCCNC(=O)c3ccc(-c4ccccn4)cc3)cc2)C(=O)O)cc1 | 73% |
| Cc1ccc(OC(Cc2ccc(OCCNC(=O)c3ccc(-c4ccccn4)cc3)cc2)C(=O)O)cc1 (centres unmarked) | 66% |
| O=C(NCCOc1ccc(CC(Oc2ccccc2)C(=O)O)cc1)c1ccc(-c2ccc(C(F)(F)F)cc2)cc1 (centres unmarked) | 32% |
| CCCCC(Cc1ccc(OCCNC(=O)c2ccc(-c3ccccc3)cc2)cc1)C(=O)O (centres unmarked) | 17% |
| CCCCC(Cc1ccc(OCCNC(=O)c2ccc(-c3cccc(O)c3)cc2)cc1)C(=O)O (centres unmarked) | 22% |
| CCOC(Cc1ccc(OCCNC(=O)c2ccc(-c3ccccn3)cc2)cc1)C(=O)O (centres unmarked) | 43% |
| COC(=O)C(Cc1ccc(OCCNC(=O)c2ccc(-c3ccccn3)cc2)cc1)Sc1ccccc1 (centres unmarked) | 58% |
| CC(C)c1ccc(OC(Cc2ccc(OCCNC(=O)c3ccc(-c4ccc(N(C)C)cn4)cc3)cc2)C(=O)O)cc1 (centres unmarked) | 64% |
